# Tested on: KM-20L2
# assay method text: NCI tumour cell line growth inhibition, 48 h
Calls of active or inactive are those of the source. No stated cut-off is given here; in the data, active = GI50 up to about 1.1 µM and inactive = higher.
Tick one outcome: Y for active, N for inactive

State the result this test recorded for CC1=C2C(=O)C(C)(C)C=C2C(=O)[C@](C)(O)C12CC2 [DEHYDROILLUDIN M] .
Y

Hey, what did the test say about CC(=O)Oc1cc2c(cc1OC(C)=O)OCC(c1ccc(C)cc1)C2 (stereo not given) ?
N

Recorded test call requested for Cc1ccccc1NC(=O)c1c(C)oc2c1C(=O)c1ccccc1C2=O
N

Name the outcome recorded for COc1ccccc1/C=C(\NC(=O)c1ccccc1)c1nc2ccc(Cl)cc2[nH]1 in the assay.
N

Look up the recorded call for CCCCCCCCCC1CC(=O)OC23CCCC(=O)C12O3 (stereo not given) in this test.
N

Please state the recorded outcome for this molecule: COc1ccc2oc(-c3ccc(OC)c(OC)c3OC)cc(=O)c2c1
N

What call does the record list for CCOc1ccc(/C=C(\Cl)c2ccc(OC)c(OC)c2)cc1 ?
N

For this molecule, state the assay outcome: COc1c(O)c(O)cc2c1-c1ccc(OC)c(=O)cc1C(NC(C)=O)CC2 (stereo not given)
N

Dear colleague, could you share the recorded outcome for CSc1ccc2c(cc1=O)C(NC(=O)c1ccccc1)CCc1cc(O)c(O)c(O)c1-2 (stereo not given) when you have a moment?
N

Field: outcome | Entry: C[N+](C)(C)CC(=O)N/N=C(/Cc1nc2ccc(Cl)cc2nc1O)C1=NS(=O)(=O)c2cc(S(N)(=O)=O)c(Cl)cc2N1
N

###

Provide the recorded GI50 for the entries that follow.
# System: M14
# assay method text: NCI tumour cell line growth inhibition, 48 h
Calls of active or inactive are those of the source. Rule as the data show it: active = GI50 up to about 1.1 µM and inactive = higher.

I am curious: what GI50 value has been reported for N#Cc1c(O)c(/N=N/c2ccc(Cl)cc2)c(=O)n2c1[nH]c1ccccc12 ?
36 µM (inactive)

# GI50 lookup, item O=C(Nc1nnc(S)[nH]1)C(=O)C1C(=O)Nc2ccccc2[S+]1[O-] (centres undefined)
> 100 µM (inactive)

Any idea what GI50 was measured for COc1cc(C)cc2c1c(=O)c1ccccc1n2C ?
34.7 µM (inactive)

So what does the record say about GI50 for O=C1CC2C=CC(O)C(C1)C2 (centres undefined) ?
> 100 µM (inactive)

Which value of GI50 has been reported for O=c1c2cccnc2[nH]c2ccc3[nH]ncc3c12 in the records?
> 10 µM (inactive)

Quick check: GI50 of Cc1ccc(NC(=O)C(=O)C(C(=O)/C=C/c2ccccc2)C2OC(=O)c3ccccc32)c(C)c1 (centres undefined) ?
> 100 µM (inactive)

Please look up its GI50: NC(=O)N/N=C/C(/C=N/NC(N)=O)[N+](=O)[O-]
> 100 µM (inactive)

For the compound shown here, C[N+]1(CC[N+]2(C)CCCC2c2cccnc2)CCCC1c1cccnc1 (centres undefined) , give the reported GI50.
> 100 µM (inactive)

Query: GI50; subject: CCOn1cc(C[C@@]2(O)C(=O)OC3[C@@H](O)CO[C@@]32O)c2ccccc21 (some centres undefined)
> 100 µM (inactive)

# lookup: GI50 of Cc1ccc(C(=O)C(C)N)cc1C (centres undefined)
> 100 µM (inactive)

# query: GI50 of entry COc1cc2c3cc1Oc1c(OC)c(OC)cc4c1C(Cc1ccc(O)c(c1)Oc1ccc(cc1)CC3N(C)CC2)N(C)CC4 (centres undefined)
33.7 µM (inactive)

Which GI50 is listed for COc1ccc(NC(=O)CC(=O)n2nc(-c3ccccc3)c(/N=N/c3ccc(C)cc3)c2-c2ccccc2)cc1 ?
52.6 µM (inactive)

What does the record list as GI50 for O=C1C(Cl)=C(N2CCC[C@@H]2CO)C(=O)c2c(O)ccc(O)c21 ?
1.67 µM (inactive)

Value lookup for GI50; key = O=c1[nH]nc(-c2ccccc2)c(-c2ccccc2)c1-n1nc(-c2ccccc2)c2ccccc2c1=O
> 100 µM (inactive)

Look up GI50 for this compound: O=C(COC(c1ccc(F)cc1)c1ccc(F)cc1)N1CCN(CCCc2ccccc2)CC1
4.32 µM (inactive)

For O=c1ss/c(=N\c2ccccc2)n1-c1ccccc1 , what is its reported GI50?
19 µM (inactive)

Please report the recorded GI50 for CC(CC(N)C(=O)O)C(=O)O (centres undefined) .
> 100 µM (inactive)

Name the reported GI50 value associated with the compound Cc1cc2nc3c(N)nn(CCCN(C)C)c3nc2cc1C
30.1 µM (inactive)

Quick check: GI50 of CC(C)(C)OC(=O)C1/C(=C/CO)CN1C(=O)OC(C)(C)C (centres undefined) ?
> 100 µM (inactive)
